system: SF-295; assay: NCI tumour cell line growth inhibition, 48 h
Active and inactive are the calls of the source. No stated cut-off is given here; in the data, active = GI50 up to about 1.1 µM and inactive = higher. Square brackets hold non-standard residues; d marks the D form. Peptide text beside a SMILES is read from it. pGlu = O=C1CC[C@@H](C(=O)O)N1; Thz = O=C(O)[C@@H]1CSCN1
GI50 for assorted compounds
quantityName: GI50

{"columns": ["compound", "quantityName", "result"],
 "data": [
  ["Cc1cc(=O)n2c3c(c4c(cc13)c(CN(C)C)cc(=O)n4C)OC2", "GI50", "16.9 µM (inactive)"],
  ["O=P1(Oc2ccccc2)N=P(c2ccccc2)(c2ccccc2)C=C(c2ccc(Cl)cc2)N1 (stereo unspecified)", "GI50", "6.92 µM (inactive)"],
  ["C[n+]1c(-c2ccc(/C=N/NC(=N)N/N=C/c3ccc(-c4cn5cc(Cl)ccc5[n+]4C)cc3)cc2)cn2cc(Cl)ccc21", "GI50", "> 100 µM (inactive)"],
  ["N#Cc1cc2c(cc1C#N)SCCSCCCSCCS2", "GI50", "5.47 µM (inactive)"],
  ["CC1=C[C@H]([C@H]2C=C(C)C(C(N)=O)=CN2Cc2c(Cl)cccc2Cl)N(Cc2c(Cl)cccc2Cl)C=C1C(N)=O", "GI50", "> 75 µM (inactive)"],
  ["O=C(c1c(F)c(F)c(F)c(F)c1F)c1c(F)c(F)c(F)c(F)c1F", "GI50", "2.55 µM (inactive)"],
  ["Cn1cc(-c2csc(-c3cn(C)c4ccccc34)n2)c2ccccc21", "GI50", "23.4 µM (inactive)"],
  ["CC(C)CCC[C@@H](C)C1CCC2[C@@H]3CC=C4C[C@@H](OC(=O)CCC(=O)NCC[N+](C)(C)CCCS(=O)(=O)[O-])CC[C@]4(C)C3CC[C@@]21C (stereo partly specified)", "GI50", "17 µM (inactive)"],
  ["CC(C)C1OC(/C=C/c2ccccc2)OCC1(C)C (stereo unspecified)", "GI50", "31 µM (inactive)"],
  ["CC(O)CCC(=O)c1ccoc1 (stereo unspecified)", "GI50", "7130 µM (inactive)"],
  ["CC1(C)CCC[C@@]2(C)C1CC[C@@]1(CO)O[C@H](C3=CC(=O)OC3O)C[C@H]12 (stereo partly specified)", "GI50", "21.5 µM (inactive)"],
  ["CC(=O)O[C@H]1C[C@H]2[C@@H](OC(C)=O)/C=C3\\C[C@](C)(C(=O)[C@H](O)C(=C1C)C2(C)C)[C@@H](O)C[C@@H]3OC(=O)[C@H](O)[C@H](c1ccccc1)N(C)C", "GI50", "> 100 µM (inactive)"],
  ["CCOC(=O)C1S/C(=N\\c2cccc(Cl)c2C)N=C1C (stereo unspecified)", "GI50", "18.8 µM (inactive)"],
  ["CN(C)C(=O)NCCN1CCCCCc2ccccc21", "GI50", "> 100 µM (inactive)"],
  ["O=C1/C(=C/c2ccccc2)Oc2cc(O)ccc21", "GI50", "> 100 µM (inactive)"],
  ["Cc1cc(C)c(O)c(CN2CCN(C(C)C)CCN(C(C)C)CC2)c1", "GI50", "15.7 µM (inactive)"],
  ["Cc1cc(S(=O)(=O)Nc2nnc3cc(C(F)(F)F)cc(C)n23)c(S)cc1Cl", "GI50", "55.1 µM (inactive)"],
  ["Clc1cc(OCC23CC4CC(CC(C4)C2)C3)nc(OCC23CC4CC(CC(C4)C2)C3)n1", "GI50", "41.7 µM (inactive)"],
  ["O=C1CC[C@@H](C(=O)N2CSC[C@H]2C(=O)O)N1 [PIDOTIMOD] ([pGlu]-[Thz]-OH)", "GI50", "> 100 µM (inactive)"],
  ["COc1cc(/C=C/c2ccc(/C=C/c3cc(OC)c(OC)c(OC)c3)cc2)cc(OC)c1OC", "GI50", "10.9 µM (inactive)"],
  ["Cn1cnc([N+](=O)[O-])c1Sc1nc(N)nc2c1ncn2C1OC(CO)C(O)C1O (stereo unspecified)", "GI50", "3.46 µM (inactive)"]
]}

Recorded values, source ChEMBL document CHEMBL1201862.
